Test: The drug is tested on the gut metagenome community of P-01 with ENA study accession number: PRJEB31790 for biotransformation under anaerobic condition. The drug concentrations were measured over 7 timepoints collected between 0 and 12 hours of incubation by liquid-chromatography-coupled mass spectrometry (LC–MS)
Format: ADME
Design: dose 5 uM, timepoint 0, 0.75, 1.5, 3, 6, 9, 12 hours
Details: 5 µM
experimental-endpoint: Bacterial Biotransformation

COc1ccc([C@@H]2Sc3ccccc3N(CCN(C)C)C(=O)[C@@H]2OC(C)=O)cc1 [DILTIAZEM] = Compound metabolized
NS(=O)(=O)c1cc(C(=O)O)c(NCc2ccco2)cc1Cl [FUROSEMIDE] = Compound NOT metabolized
CCC(C)(C)C(=O)O[C@H]1C[C@@H](C)C=C2C=C[C@H](C)[C@H](CC[C@@H]3C[C@@H](O)CC(=O)O3)[C@H]21 [SIMVASTATIN] = Compound NOT metabolized
CCCC1O[C@@H]2C[C@H]3[C@@H]4CCC5=CC(=O)C=C[C@]5(C)[C@H]4[C@@H](O)C[C@]3(C)[C@]2(C(=O)CO)O1 (stereo not given in full) [BUDESONIDE] = Compound metabolized
COc1c(C)c2c(c(O)c1C/C=C(\C)CCC(=O)OCCN1CCOCC1)C(=O)OC2 [MYCOPHENOLATE MOFETIL] = Compound metabolized
C[C@]12C=CC(=O)C=C1CC[C@@H]1[C@@H]2C(=O)C[C@@]2(C)[C@H]1CC[C@]2(O)C(=O)CO [PREDNISONE] = Compound metabolized
C[C@@H]1C[C@H]2[C@@H]3CCC4=CC(=O)C=C[C@]4(C)[C@@]3(F)[C@@H](O)C[C@]2(C)[C@@]1(O)C(=O)CO [DEXAMETHASONE] = Compound NOT metabolized
CCOC(=O)C1=C(COCCN)NC(C)=C(C(=O)OC)C1c1ccccc1Cl (stereo not given) [AMLODIPINE] = Compound NOT metabolized
CN(Cc1cnc2nc(N)nc(N)c2n1)c1ccc(C(=O)N[C@@H](CCC(=O)O)C(=O)O)cc1 [METHOTREXATE] = Compound NOT metabolized
CCOc1nc2cccc(C(=O)O)c2n1Cc1ccc(-c2ccccc2-c2nnn[nH]2)cc1 = Compound NOT metabolized

Please state Bacterial Biotransformation for every compound in the list that follows.
1. C[C@@H](NCCCc1cccc(C(F)(F)F)c1)c1cccc2ccccc12
2. COc1c(C)c2c(c(O)c1C/C=C(\C)CCC(=O)O)C(=O)OC2 [MYCOPHENOLIC ACID]
3. C[C@H]1C[C@@H]2[C@H]([C@@H](O)C[C@@]3(C)[C@H]2CC[C@]3(O)C(=O)CO)[C@@]2(C)C=CC(=O)C=C12 [METHYLPREDNISOLONE]

Given back:
Compound NOT metabolized
Compound NOT metabolized
Compound metabolized

Required: Bacterial Biotransformation, one value per compound below.
1. C[C@]12C=CC(=O)C=C1CC[C@@H]1[C@@H]2[C@@H](O)C[C@@]2(C)[C@H]1CC[C@]2(O)C(=O)CO [PREDNISOLONE]
2. CC(C)NCC(O)COc1ccc(CC(N)=O)cc1 (stereo not given) [ATENOLOL]

Given back:
Compound metabolized
Compound NOT metabolized
